src = patent US8785488B2

- targetOfAssay: human TGR5 (h-TGR5) (Homo sapiens, UniProt Q8TDU6)
- Construct: expressed in transfected cells
- Sequence (Q8TDU6 whole entry): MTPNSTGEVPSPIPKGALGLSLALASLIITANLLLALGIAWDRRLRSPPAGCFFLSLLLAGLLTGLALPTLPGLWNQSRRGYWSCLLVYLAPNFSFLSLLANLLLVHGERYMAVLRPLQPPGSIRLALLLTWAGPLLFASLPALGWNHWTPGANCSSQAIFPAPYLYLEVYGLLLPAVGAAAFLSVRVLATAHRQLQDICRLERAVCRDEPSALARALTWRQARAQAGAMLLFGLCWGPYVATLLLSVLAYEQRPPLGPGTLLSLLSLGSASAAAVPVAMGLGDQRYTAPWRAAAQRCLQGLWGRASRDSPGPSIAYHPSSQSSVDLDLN
- assayOverview: TGR5/CRE-Luciferiase Assay (HEK 293 hTGR5/CRE-Luc cells)
- Assay type: cell-based
- conditions: h-TGR5 CRE-Luc EC50, Table 1; read-out: CRE-Luc (EC50)
metricName: EC50

input: So what does the record say about EC50 for CC(C)(c1ccc(Cl)c(Cl)c1)c1cnc(SCC2CCN(S(C)(=O)=O)C2)n1-c1ccc(F)cc1 (centres unmarked) ?
output: 100 to 1000 nM

input: For the compound shown here, CC(C)(c1ccc(Cl)c(Cl)c1)c1cnc(SCC2CCN(c3nnn[nH]3)C2)n1-c1ccc(F)cc1 (centres unmarked) , give the reported EC50.
output: 100 to 1000 nM

input: Could you tell me which EC50 is on file for `CC(C)(O)COc1cc(C(C)(C)c2cnc(SCc3c(F)cccc3Cl)n2-c2ccc(F)cc2)ccc1Cl` ?
output: 100 to 1000 nM

input: For the compound `COc1ccc(C(C)(C)c2cnc(SCc3ccc(F)c(S(N)(=O)=O)c3)n2-c2ccc(F)cc2)cc1Cl` , what EC50 is on record?
output: < 100 nM

input: Could you tell me which EC50 is on file for `CC(C)(c1ccc(Cl)c(Cl)c1)c1cnc(SCc2ccc(F)cc2Cl)n1-c1ccc(F)cc1` ?
output: 100 to 1000 nM

input: Could you share which EC50 value was measured for `CC(C)(c1ccc(Cl)c(Cl)c1)c1cnc(SCC2CCN(S(C)(=O)=O)CC2)n1-c1ccc(F)c(F)c1` ?
output: < 100 nM

input: EC50 lookup needed for `COc1cc(C(C)(C)c2cnc(SCC3CCN(c4nnn[nH]4)CC3)n2-c2ccc(F)cc2)ccc1Cl` , thanks.
output: < 100 nM

input: For the compound `CC(C)(c1ccc(Cl)c(Cl)c1)c1cnc(SCc2ccc(F)cc2Cl)n1-c1ccc(F)c(OCC(=O)O)c1` , what EC50 is on record?
output: 1000 to 10000 nM
